The values you see were collected from ChEMBL document CHEMBL5370641.

experiment: Total clearance in Sprague-Dawley rat at 1 mg/kg, iv administered as single dose by LC-MS/MS analysis; format: ADME, organism-based; settings: in vivo
Numbered stars: 1 amine (or outer) side, 2 acyl side, 3 side chain; on linkers, the order of the positions; unused ones are H or OH. Square brackets hold non-standard residues; d marks the D form. Peptide text beside a SMILES is read from it. * marks the point of attachment. Benzenesulfonyl(4-Cl,3-CF3) = O=S(=O)(c1ccc(Cl)c(C(F)(F)F)c1)*; γGlu = O=C(O)[C@H](CCC(=O)[*:2])N[*:1]; 4Pal = N[C@@H](Cc1ccncc1)C(=O)O; Tle = CC(C)(C)[C@H](N)C(=O)O; β3hP = O=C(O)C[C@@H]1CCCN1
measured-endpoint: clearance (mL/min/kg)
Enter your answer as a number in mL/min/kg; do not include the unit.

Per the record, CC(C)(C)[C@H](NC(=O)[C@H](Cc1ccncc1)NC(=O)CNC(=O)CC[C@H](NS(=O)(=O)c1ccc(Cl)c(C(F)(F)F)c1)C(=O)O)C(=O)N1CCC[C@H]1CC(N)=O ({Benzenesulfonyl(4-Cl,3-CF3)-γGlu}-G[4Pal][Tle][β3hP]-NH2) has clearance of 85.5

###

assay: Metabolic stability in rat liver microsome assessed as intrinsic clearance at 1 uM incubated for 15 mins by LC-MS analysis; format: ADME; conditions: liver microsomes, read-out: CLH (converted)
Numbered stars: 1 amine (or outer) side, 2 acyl side, 3 side chain; on linkers, the order of the positions; unused ones are H or OH. Square brackets hold non-standard residues; d marks the D form. Peptide text beside a SMILES is read from it. * marks the point of attachment. Benzenesulfonyl(4-Cl,3-CF3) = O=S(=O)(c1ccc(Cl)c(C(F)(F)F)c1)*; γGlu = O=C(O)[C@H](CCC(=O)[*:2])N[*:1]; 4Pal = N[C@@H](Cc1ccncc1)C(=O)O; Tle = CC(C)(C)[C@H](N)C(=O)O; β3hP = O=C(O)C[C@@H]1CCCN1
measured-endpoint: CLint scaled at 1 µM (mL/min/kg)
Report as a plain number; the unit mL/min/kg is understood.

Entry CC(C)(C)[C@H](NC(=O)[C@H](Cc1ccncc1)NC(=O)CNC(=O)CC[C@H](NS(=O)(=O)c1ccc(Cl)c(C(F)(F)F)c1)C(=O)O)C(=O)N1CCC[C@H]1CC(N)=O ({Benzenesulfonyl(4-Cl,3-CF3)-γGlu}-G[4Pal][Tle][β3hP]-NH2) , CLint scaled at 1 µM reported as 23.6

###

Target: Matrilysin (Homo sapiens, UniProt P09237)
Sequence (P09237 whole entry): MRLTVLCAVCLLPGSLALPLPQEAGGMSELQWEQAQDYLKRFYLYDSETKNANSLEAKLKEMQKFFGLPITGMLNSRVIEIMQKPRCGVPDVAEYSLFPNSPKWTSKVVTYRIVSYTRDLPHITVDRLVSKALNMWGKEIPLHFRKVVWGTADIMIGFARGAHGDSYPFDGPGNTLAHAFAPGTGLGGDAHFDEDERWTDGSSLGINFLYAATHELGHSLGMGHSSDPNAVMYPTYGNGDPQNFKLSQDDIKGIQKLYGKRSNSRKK
Experiment: Inhibition of recombinant human MMP7 using MOCAc-Pro-Leu-Gly-Leu-A2pr-(Dnp)-Ala-Arg-NH2 as substrate preincubated with compound for 15 mins followed by substrate addition and measured after 2 hrs by fluorescence based analysis
Numbered stars: 1 amine (or outer) side, 2 acyl side, 3 side chain; on linkers, the order of the positions; unused ones are H or OH. Square brackets hold non-standard residues; d marks the D form. Peptide text beside a SMILES is read from it. * marks the point of attachment. Benzenesulfonyl(4-Cl,3-CF3) = O=S(=O)(c1ccc(Cl)c(C(F)(F)F)c1)*; γGlu = O=C(O)[C@H](CCC(=O)[*:2])N[*:1]; 4Pal = N[C@@H](Cc1ccncc1)C(=O)O; Tle = CC(C)(C)[C@H](N)C(=O)O; β3hP = O=C(O)C[C@@H]1CCCN1
measured-endpoint: pIC50
pIC50 (log units): -log10 of the concentration in mol/L.

pIC50 in this record for COc1ccc(C[C@H](NC(=O)CNC(=O)CC[C@H](NS(=O)(=O)c2ccc(Cl)c(C(F)(F)F)c2)C(=O)O)C(=O)N[C@H](C(=O)N2CCC[C@H]2CC(N)=O)C(C)(C)C)cc1 ({Benzenesulfonyl(4-Cl,3-CF3)-γGlu}-GY(Me)[Tle][β3hP]-NH2) : 7.85

Data point: CC(C)(C)[C@H](NC(=O)[C@H](Cc1ccncc1)NC(=O)CNC(=O)CC[C@H](NS(=O)(=O)c1ccc(Cl)c(C(F)(F)F)c1)C(=O)O)C(=O)N1CCC[C@H]1CC(N)=O ({Benzenesulfonyl(4-Cl,3-CF3)-γGlu}-G[4Pal][Tle][β3hP]-NH2) ; pIC50 = 8.55

Quick note, pIC50 for CC(C)c1cn(C[C@H](NC(=O)CNC(=O)CC[C@H](NS(=O)(=O)c2ccc(Cl)c(C(F)(F)F)c2)C(=O)O)C(=O)N[C@H](C(=O)N2CCC[C@H]2CC(N)=O)C(C)(C)C)nn1 landed at 7.00

Per the records, this molecule ( CC(C)Cn1cc(-c2ccc(C[C@H](NC(=O)CNC(=O)CC[C@H](NS(=O)(=O)c3ccc(Cl)c(C(F)(F)F)c3)C(=O)O)C(=O)N[C@H](C(=O)N3CCC[C@H]3CC(N)=O)C(C)(C)C)cc2)cn1 ) has pIC50 equal to 7.64

###

Consider the following compounds; for each one, report its pIC50.
biological target: Matrix metalloproteinase-14 (Homo sapiens); assay: Inhibition of recombinant human MMP14 using MOCAc-Lys-Pro-Leu-Gly-Leu-A2pr(Dnp)-Ala-Arg-NH2 as substrate preincubated with compound for 15 mins followed by substrate addition and measured after 1 hrs by fluorescence based analysis
Numbered stars: 1 amine (or outer) side, 2 acyl side, 3 side chain; on linkers, the order of the positions; unused ones are H or OH. Square brackets hold non-standard residues; d marks the D form. Peptide text beside a SMILES is read from it. * marks the point of attachment. Benzenesulfonyl(4-Cl,3-CF3) = O=S(=O)(c1ccc(Cl)c(C(F)(F)F)c1)*; Phe(4-CF3) = N[C@@H](Cc1ccc(C(F)(F)F)cc1)C(=O)O; Ala(4-Pyridazinyl) = N[C@@H](Cc1ccnnc1)C(=O)O; Ala(thiazol-2-yl) = N[C@@H](Cc1nccs1)C(=O)O; Ala(4-thiazolyl) = N[C@@H](Cc1cscn1)C(=O)O; Phe(3-I) = N[C@@H](Cc1cccc(I)c1)C(=O)O; γGlu = O=C(O)[C@H](CCC(=O)[*:2])N[*:1]; Phe(2-I) = N[C@@H](Cc1ccccc1I)C(=O)O; 2Pal = N[C@@H](Cc1ccccn1)C(=O)O; 4Pal = N[C@@H](Cc1ccncc1)C(=O)O; Phg = N[C@H](C(=O)O)c1ccccc1; Tle = CC(C)(C)[C@H](N)C(=O)O; β3hP = O=C(O)C[C@@H]1CCCN1
# pIC50 = -log10(concentration in molar units)

Recorded pIC50 (compound CC(C)(C)[C@H](NC(=O)[C@H](Cc1nccs1)NC(=O)CNC(=O)CC[C@H](NS(=O)(=O)c1ccc(Cl)c(C(F)(F)F)c1)C(=O)O)C(=O)N1CCC[C@H]1CC(N)=O ({Benzenesulfonyl(4-Cl,3-CF3)-γGlu}-G[Ala(thiazol-2-yl)][Tle][β3hP]-NH2) ): 5.42

For reference, reported pIC50 for CC(C)(C)[C@H](NC(=O)[C@H](Cn1ccnn1)NC(=O)CNC(=O)CC[C@H](NS(=O)(=O)c1ccc(Cl)c(C(F)(F)F)c1)C(=O)O)C(=O)N1CCC[C@H]1CC(N)=O stands at 5.08

compound CC(C)(C)[C@H](NC(=O)[C@H](Cc1cccc(I)c1)NC(=O)CNC(=O)CC[C@H](NS(=O)(=O)c1ccc(Cl)c(C(F)(F)F)c1)C(=O)O)C(=O)N1CCC[C@H]1CC(N)=O ({Benzenesulfonyl(4-Cl,3-CF3)-γGlu}-G[Phe(3-I)][Tle][β3hP]-NH2) , pIC50 observed: 5.51

According to the records, this compound CC(C)C[C@H](NC(=O)CNC(=O)CC[C@H](NS(=O)(=O)c1ccc(Cl)c(C(F)(F)F)c1)C(=O)O)C(=O)N[C@H](C(=O)N1CCC[C@H]1CC(N)=O)C(C)(C)C ({Benzenesulfonyl(4-Cl,3-CF3)-γGlu}-GL[Tle][β3hP]-NH2) displays pIC50 of 6.62

According to the records, this compound CC(C)(C)[C@H](NC(=O)[C@H](Cc1ccccc1I)NC(=O)CNC(=O)CC[C@H](NS(=O)(=O)c1ccc(Cl)c(C(F)(F)F)c1)C(=O)O)C(=O)N1CCC[C@H]1CC(N)=O ({Benzenesulfonyl(4-Cl,3-CF3)-γGlu}-G[Phe(2-I)][Tle][β3hP]-NH2) displays pIC50 of 5.47

Measured pIC50, CC(C)(C)[C@H](NC(=O)[C@H](Cc1ccc(C(F)(F)F)cc1)NC(=O)CNC(=O)CC[C@H](NS(=O)(=O)c1ccc(Cl)c(C(F)(F)F)c1)C(=O)O)C(=O)N1CCC[C@H]1CC(N)=O ({Benzenesulfonyl(4-Cl,3-CF3)-γGlu}-G[Phe(4-CF3)][Tle][β3hP]-NH2) : 5.77

Recorded result, CC(C)(C)[C@H](NC(=O)[C@H](Cc1ccccn1)NC(=O)CNC(=O)CC[C@H](NS(=O)(=O)c1ccc(Cl)c(C(F)(F)F)c1)C(=O)O)C(=O)N1CCC[C@H]1CC(N)=O ({Benzenesulfonyl(4-Cl,3-CF3)-γGlu}-G[2Pal][Tle][β3hP]-NH2) , pIC50: 5.46

The recorded pIC50 for entry CC(C)(C)[C@H](NC(=O)[C@H](Cc1cscn1)NC(=O)CNC(=O)CC[C@H](NS(=O)(=O)c1ccc(Cl)c(C(F)(F)F)c1)C(=O)O)C(=O)N1CCC[C@H]1CC(N)=O ({Benzenesulfonyl(4-Cl,3-CF3)-γGlu}-G[Ala(4-thiazolyl)][Tle][β3hP]-NH2) equals 6.03

compound CC(C)(C)[C@H](NC(=O)[C@H](Cc1ccncc1)NC(=O)CNC(=O)CC[C@H](NS(=O)(=O)c1ccc(Cl)c(C(F)(F)F)c1)C(=O)O)C(=O)N1CCC[C@H]1CC(N)=O ({Benzenesulfonyl(4-Cl,3-CF3)-γGlu}-G[4Pal][Tle][β3hP]-NH2) , pIC50 observed: 6.07

pIC50 for CC(C)(C)[C@H](NC(=O)[C@H](Cc1ccnnc1)NC(=O)CNC(=O)CC[C@H](NS(=O)(=O)c1ccc(Cl)c(C(F)(F)F)c1)C(=O)O)C(=O)N1CCC[C@H]1CC(N)=O ({Benzenesulfonyl(4-Cl,3-CF3)-γGlu}-G[Ala(4-Pyridazinyl)][Tle][β3hP]-NH2) is 5.85

Memo: CC(C)(C)[C@H](NC(=O)[C@@H](NC(=O)CNC(=O)CC[C@H](NS(=O)(=O)c1ccc(Cl)c(C(F)(F)F)c1)C(=O)O)c1ccccc1)C(=O)N1CCC[C@H]1CC(N)=O ({Benzenesulfonyl(4-Cl,3-CF3)-γGlu}-G[Phg][Tle][β3hP]-NH2) , reported pIC50: 5.29

Sample CC(C)Cn1cc(-c2ccc(C[C@H](NC(=O)CNC(=O)CC[C@H](NS(=O)(=O)c3ccc(Cl)c(C(F)(F)F)c3)C(=O)O)C(=O)N[C@H](C(=O)N3CCC[C@H]3CC(N)=O)C(C)(C)C)cc2)cn1 ; pIC50 observed: 4.34

Noted for CC(C)(C)[C@H](NC(=O)[C@H](Cn1cc(C2CC2)nn1)NC(=O)CNC(=O)CC[C@H](NS(=O)(=O)c1ccc(Cl)c(C(F)(F)F)c1)C(=O)O)C(=O)N1CCC[C@H]1CC(N)=O : its pIC50 reads 5.03
